PROTOCOL DESCRIPTION: Oral bioavailability in BALB/c mouse at 10 mg/kg
Format: ADME, organism-based
CONDITION DESCRIPTION: in vivo
PROPERTY MEASURED: bioavailability (%)

>  <STRUCTURE STRING>
CC(C)c1nn(Cc2nnc(-c3ccc(C(F)(F)F)nc3Cl)o2)c(=O)c2cc3sc(Cl)cc3n12

>  <PROPERTY MEASURED>
bioavailability

>  <RESULT UNITS>
%

>  <RECORDED NUMBER>
22.5

$$$$

====

PROTOCOL DESCRIPTION: AUC (0 to t) in BALB/c mouse at 10 mg/kg, iv
Format: ADME, organism-based
Set-up: dose 10 mg/kg, route iv
CONDITION DESCRIPTION: in vivo

>  <STRUCTURE STRING>
CC(C)c1nn(Cc2nnc(-c3ccc(C(F)(F)F)nc3Cl)o2)c(=O)c2cc3sc(Cl)cc3n12

>  <RESULT UNITS>
ng·h/mL

>  <AUC(0-t)>
5210

$$$$

====

ASSAY SYSTEM: NACHT, LRR and PYD domains-containing protein 3 (Homo sapiens)
Sequence (Q96P20 whole entry, the tested form may be a part): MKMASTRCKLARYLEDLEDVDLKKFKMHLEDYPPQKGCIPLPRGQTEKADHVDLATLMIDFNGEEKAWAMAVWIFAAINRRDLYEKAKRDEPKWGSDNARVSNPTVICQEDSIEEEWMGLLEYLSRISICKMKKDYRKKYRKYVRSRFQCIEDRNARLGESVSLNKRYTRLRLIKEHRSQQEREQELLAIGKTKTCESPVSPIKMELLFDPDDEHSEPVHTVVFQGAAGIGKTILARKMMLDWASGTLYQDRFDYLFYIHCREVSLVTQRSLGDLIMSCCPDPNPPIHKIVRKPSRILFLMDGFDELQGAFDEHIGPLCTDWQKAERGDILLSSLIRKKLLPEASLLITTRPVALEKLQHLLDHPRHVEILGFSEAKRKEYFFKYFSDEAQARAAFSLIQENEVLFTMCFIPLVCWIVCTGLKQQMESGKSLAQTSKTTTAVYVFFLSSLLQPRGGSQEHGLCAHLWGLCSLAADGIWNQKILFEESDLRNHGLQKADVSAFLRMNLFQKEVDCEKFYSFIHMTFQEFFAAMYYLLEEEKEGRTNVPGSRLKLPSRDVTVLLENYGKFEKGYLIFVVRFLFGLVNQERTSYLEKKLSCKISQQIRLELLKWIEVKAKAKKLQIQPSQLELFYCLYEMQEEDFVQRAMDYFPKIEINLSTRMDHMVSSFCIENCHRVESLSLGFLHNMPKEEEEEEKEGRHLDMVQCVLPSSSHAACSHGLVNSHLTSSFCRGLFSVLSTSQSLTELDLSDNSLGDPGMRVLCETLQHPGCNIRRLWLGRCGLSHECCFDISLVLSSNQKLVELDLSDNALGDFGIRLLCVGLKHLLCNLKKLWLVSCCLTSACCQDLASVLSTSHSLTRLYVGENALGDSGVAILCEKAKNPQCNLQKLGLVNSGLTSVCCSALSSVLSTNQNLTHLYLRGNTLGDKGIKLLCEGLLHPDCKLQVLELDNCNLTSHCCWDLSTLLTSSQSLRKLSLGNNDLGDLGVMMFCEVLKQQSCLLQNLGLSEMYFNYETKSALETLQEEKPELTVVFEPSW
PROTOCOL DESCRIPTION: Inhibition of NLRP3 inflammasome in PMA-differentiated human THP-1 cells assessed as inhibition of LPS/nigericin-induced IL-1 beta secretion pretreated with LPS for 3 hrs followed by incubation with compound for 40 mins and later stimulated with nigericin for 35 mins by ELISA
pIC50: −log10 of the molar value.
Each item that follows carries a reported pIC50.

>  <STRUCTURE STRING>
Cc1cccc(-c2nnc(Cn3nc(C(C)C)n4c(cc5sc(Cl)cc54)c3=O)o2)c1

>  <pIC50>
< 5.00

$$$$
>  <STRUCTURE STRING>
CC(C)c1nn(CC(=O)NC2CCOCC2)c(=O)c2ccc(-c3ccsc3)n12

>  <pIC50>
< 5.00

$$$$
>  <STRUCTURE STRING>
CC(C)c1nn(Cc2nnc(C3CCOCC3)o2)c(=O)c2cc3sccc3n12

>  <pIC50>
< 5.00

$$$$
>  <STRUCTURE STRING>
CC(C)c1nn(Cc2nnc(-c3cnccn3)o2)c(=O)c2cc3sc(Cl)cc3n12

>  <pIC50>
5.65

$$$$
>  <STRUCTURE STRING>
CC(C)c1nn(Cc2nnc(C3CCOCC3)o2)c(=O)c2cc3sc(Cl)cc3n12

>  <pIC50>
5.62

$$$$
>  <STRUCTURE STRING>
CC(C)c1nn([C@@H](C)c2nnc(-c3ccc(C(F)(F)F)nc3Cl)o2)c(=O)c2cc3sc(Cl)cc3n12

>  <pIC50>
< 5.00

$$$$
>  <STRUCTURE STRING>
CC(C)c1nn(Cc2nnc(-c3cccnc3)[nH]2)c(=O)c2cc3sc(Cl)cc3n12

>  <pIC50>
< 5.00

$$$$
>  <STRUCTURE STRING>
CC(C)c1nn(Cc2nnc(-c3cccc(C#N)c3)o2)c(=O)c2cc3sc(Cl)cc3n12

>  <pIC50>
6.42

$$$$
>  <STRUCTURE STRING>
CC(C)c1nn(Cc2nnc(-c3ccncn3)o2)c(=O)c2cc3sc(Cl)cc3n12

>  <pIC50>
5.91

$$$$
>  <STRUCTURE STRING>
O=C(CN1CCn2c(cc3sccc32)C1=O)NC1CCOCC1

>  <pIC50>
< 5.00

$$$$
>  <STRUCTURE STRING>
CC(C)c1nn(Cc2nnc(-c3cc(C(F)(F)F)cnc3Cl)o2)c(=O)c2cc3sc(Cl)cc3n12

>  <pIC50>
5.75

$$$$
>  <STRUCTURE STRING>
CC(C)c1nn(CC(=O)NC2CCOCC2)c(=O)c2cc(NC3COC3)cn12

>  <pIC50>
< 5.00

$$$$
>  <STRUCTURE STRING>
CC(C)c1nn([C@H](C)c2nnc(-c3ccc(C(F)(F)F)nc3Cl)o2)c(=O)c2cc3sc(Cl)cc3n12

>  <pIC50>
< 5.00

$$$$
>  <STRUCTURE STRING>
COc1cccc(-c2nnc(Cn3nc(C(C)C)n4c(cc5sc(Cl)cc54)c3=O)o2)c1

>  <pIC50>
< 5.00

$$$$
>  <STRUCTURE STRING>
CC(C)c1nn(CC(=O)NC2CCOCC2)c(=O)c2cc3ccccc3n12

>  <pIC50>
< 5.00

$$$$
>  <STRUCTURE STRING>
CC(C)c1nn(CC(=O)NC2CCOCC2)c(=O)c2cc(Nc3ccccc3)cn12

>  <pIC50>
< 5.00

$$$$
>  <STRUCTURE STRING>
O=C(CNC(=O)c1cc2sccc2[nH]1)NC1CCOCC1

>  <pIC50>
< 5.00

$$$$
>  <STRUCTURE STRING>
CC(C)c1nn(CC(=O)NC2CCOCC2)c(=O)c2ccc(-c3ccc(Cl)s3)n12

>  <pIC50>
< 5.00

$$$$
>  <STRUCTURE STRING>
CC(C)c1nn(CC(=O)NC2CCOCC2)c(=O)c2cc3cc(Cl)ccc3n12

>  <pIC50>
< 5.00

$$$$
>  <STRUCTURE STRING>
CC(C)c1nn(Cc2nnc(C3CCCCC3)o2)c(=O)c2cc3sc(Cl)cc3n12

>  <pIC50>
5.72

$$$$
>  <STRUCTURE STRING>
CC(C)c1nn(Cc2nnc(-c3cccnc3)o2)c(=O)c2cc3sc(Cl)cc3n12

>  <pIC50>
5.72

$$$$
>  <STRUCTURE STRING>
CC(C)c1nn(CC(=O)NC2CCOCC2)c(=O)c2cccn12

>  <pIC50>
< 5.00

$$$$

====

PROTOCOL DESCRIPTION: Half life in BALB/c mouse at 10 mg/kg, iv
Type: ADME, organism-based
CONDITION DESCRIPTION: in vivo
PROPERTY MEASURED: half-life (h)

>  <STRUCTURE STRING>
CC(C)c1nn(Cc2nnc(-c3ccc(C(F)(F)F)nc3Cl)o2)c(=O)c2cc3sc(Cl)cc3n12

>  <PROPERTY MEASURED>
half-life

>  <RESULT UNITS>
h

>  <RECORDED NUMBER>
2.06

$$$$

====

PROTOCOL DESCRIPTION: AUC (0 to t) in BALB/c mouse at 10 mg/kg, po
Assay type: ADME, organism-based
Set-up: dose 10 mg/kg, route po
CONDITION DESCRIPTION: in vivo
PROPERTY MEASURED: AUC(0-t)

>  <STRUCTURE STRING>
CC(C)c1nn(Cc2nnc(-c3ccc(C(F)(F)F)nc3Cl)o2)c(=O)c2cc3sc(Cl)cc3n12

>  <RESULT>
1170 ng·h/mL

$$$$

====

ASSAY SYSTEM: NACHT, LRR and PYD domains-containing protein 3 (Mus musculus, UniProt Q8R4B8)
Sequence (Q8R4B8 whole entry, the tested form may be a part): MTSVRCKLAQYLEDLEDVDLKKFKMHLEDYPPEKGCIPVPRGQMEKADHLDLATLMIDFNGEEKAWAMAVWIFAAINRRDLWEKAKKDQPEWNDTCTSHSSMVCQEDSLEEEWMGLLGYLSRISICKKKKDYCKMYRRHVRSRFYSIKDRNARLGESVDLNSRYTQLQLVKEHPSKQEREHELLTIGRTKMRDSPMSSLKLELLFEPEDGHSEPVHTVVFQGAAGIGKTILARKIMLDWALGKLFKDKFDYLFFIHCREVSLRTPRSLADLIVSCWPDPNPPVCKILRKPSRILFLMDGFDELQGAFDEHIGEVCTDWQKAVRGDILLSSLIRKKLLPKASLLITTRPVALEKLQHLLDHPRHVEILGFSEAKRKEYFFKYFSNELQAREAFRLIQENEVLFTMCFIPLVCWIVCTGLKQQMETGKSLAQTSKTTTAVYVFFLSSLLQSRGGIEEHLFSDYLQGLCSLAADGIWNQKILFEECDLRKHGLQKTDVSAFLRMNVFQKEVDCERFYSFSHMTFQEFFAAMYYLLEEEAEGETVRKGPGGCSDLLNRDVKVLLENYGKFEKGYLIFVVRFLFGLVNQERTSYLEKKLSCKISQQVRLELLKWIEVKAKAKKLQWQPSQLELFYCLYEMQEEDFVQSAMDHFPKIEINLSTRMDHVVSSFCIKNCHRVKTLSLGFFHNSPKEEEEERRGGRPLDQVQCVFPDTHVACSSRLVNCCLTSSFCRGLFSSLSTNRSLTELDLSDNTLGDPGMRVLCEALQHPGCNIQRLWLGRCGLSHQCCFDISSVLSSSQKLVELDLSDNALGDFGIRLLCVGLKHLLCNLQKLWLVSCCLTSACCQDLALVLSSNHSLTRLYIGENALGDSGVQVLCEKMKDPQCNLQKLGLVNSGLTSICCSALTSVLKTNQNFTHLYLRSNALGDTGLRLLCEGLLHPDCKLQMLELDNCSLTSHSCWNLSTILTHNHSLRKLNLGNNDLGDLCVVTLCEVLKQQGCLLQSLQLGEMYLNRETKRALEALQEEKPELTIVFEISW
PROTOCOL DESCRIPTION: Inhibition of NLRP3 inflammasome in C57BL/6 mouse BMDM cells assessed as inhibition of LPS/nigericin-induced IL-1 beta secretion pretreated with LPS for 3 hrs followed by incubation with compound for 40 mins and later stimulated with nigericin for 35 mins by ELISA
PROPERTY MEASURED: IC50

>  <STRUCTURE STRING>
CC(C)c1nn(Cc2nnc(-c3ccc(C(F)(F)F)nc3Cl)o2)c(=O)c2cc3sc(Cl)cc3n12

>  <RESULT>
380 nM

$$$$

====

PROTOCOL DESCRIPTION: Cmax in BALB/c mouse at 10 mg/kg, po
Type: ADME, organism-based
Parameters: dose 10 mg/kg, route po
CONDITION DESCRIPTION: in vivo

>  <STRUCTURE STRING>
CC(C)c1nn(Cc2nnc(-c3ccc(C(F)(F)F)nc3Cl)o2)c(=O)c2cc3sc(Cl)cc3n12

>  <Cmax [ng/mL]>
437

$$$$

====

PROTOCOL DESCRIPTION: Tmax in BALB/c mouse at 10 mg/kg, po
Assay type: ADME, organism-based
CONDITION DESCRIPTION: in vivo

>  <STRUCTURE STRING>
CC(C)c1nn(Cc2nnc(-c3ccc(C(F)(F)F)nc3Cl)o2)c(=O)c2cc3sc(Cl)cc3n12

>  <Tmax [h]>
1

$$$$

====

Each item that follows carries a reported half-life.
PROTOCOL DESCRIPTION: Metabolic stability in human liver microsomes
Type: ADME, Microsome

>  <STRUCTURE STRING>
CC(C)c1nn([C@H](C)c2nnc(-c3ccc(C(F)(F)F)nc3Cl)o2)c(=O)c2cc3sc(Cl)cc3n12

>  <RESULT UNITS>
min

>  <half-life>
59.2

$$$$
>  <STRUCTURE STRING>
CC(C)c1nn(Cc2nnc(-c3cc(F)cnc3Cl)o2)c(=O)c2cc3sc(Cl)cc3n12

>  <RESULT UNITS>
min

>  <half-life>
7.66

$$$$
>  <STRUCTURE STRING>
CC(C)c1nn(Cc2nnc(-c3ccc(C(F)(F)F)nc3Cl)o2)c(=O)c2cc3sc(Cl)cc3n12

>  <RESULT UNITS>
min

>  <half-life>
31.5

$$$$
>  <STRUCTURE STRING>
CC(C)c1nn(Cc2nnc(-c3ccc(F)nc3F)o2)c(=O)c2cc3sc(Cl)cc3n12

>  <RESULT UNITS>
min

>  <half-life>
8.86

$$$$
>  <STRUCTURE STRING>
Cc1ccc(-c2nnc(Cn3nc(C(C)C)n4c(cc5sc(Cl)cc54)c3=O)o2)c(Cl)n1

>  <RESULT UNITS>
min

>  <half-life>
15.2

$$$$
>  <STRUCTURE STRING>
CC(C)c1nn(CC(=O)NC2CCOCC2)c(=O)c2cc3sc(Cl)cc3n12

>  <RESULT UNITS>
min

>  <half-life>
18.7

$$$$
>  <STRUCTURE STRING>
[2H]C([2H])(c1nnc(-c2ccc(C(F)(F)F)nc2Cl)o1)n1nc(C(C)C)n2c(cc3sc(Cl)cc32)c1=O

>  <RESULT UNITS>
min

>  <half-life>
25.1

$$$$
